# MEASUREMENT SETUP: 293.2 K; 101.33 kPa; Liquid
Use true when the recorded mass density is no lower than 1000 kg/m3; use false when it is lower.

Prompt line: Threshold query (mass density >= 1000 kg/m3) on c1ccccc1 [benzene]
Response line: false

Prompt line: Repeat for the following compound: BrCCBr [1,2-dibromoethane]
Response line: true

Prompt line: Let us now turn to Brc1ccccc1 [bromobenzene]
Response line: true

Prompt line: Cc1ccccc1 [toluene] ?
Response line: false
